Entries annotated with measured IC50
target under test: IL-17A/A (Homo sapiens)
Construct: purchased Genscript Z03228
Sequence (Q16552 24-155): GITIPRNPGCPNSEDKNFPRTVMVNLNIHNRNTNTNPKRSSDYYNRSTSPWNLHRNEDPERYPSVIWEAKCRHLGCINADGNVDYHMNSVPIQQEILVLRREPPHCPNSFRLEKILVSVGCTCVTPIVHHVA
method description: IL-17A/A HEK-Blue Cell Assay
Assay type: cell-based
measurement parameters: HEK-Blue IL-17A reporter cell line, SEAP readout at A630, 20 hours incubation with IL-17A/A; top concentration 10 uM, 1 uM or 0.3 uM; read-out: IL-17A/A inhibition (pIC50) (converted)

Qu. So what IC50 did CCC(=O)N[C@H](Cc1ccc(NC(=O)[C@@H](NC(=O)c2ccnn2CC)C2CCCCC2)c(F)c1)C(=O)N1CCN(CCF)CC1 [Compound 679] get with IL-17A/A (Homo sapiens)?
Ans. 100 to 10000 nM

Qu. Repeat for the following molecule: CCC(=O)N[C@@H](C(=O)N1CCS(=O)(=O)CC1)[C@@H](C)c1ccc(NC(=O)[C@@H](NC(=O)C(F)(F)c2cccc(C#N)c2)C2CCCCC2)c(F)c1 [Compound 365]
Ans. 10 to 100 nM

Qu. Repeat for the following molecule: CCC(=O)N[C@@H](C(=O)N1CC2(C1)CC(F)(F)C2)[C@@H](C)c1ccc(NC(=O)[C@@H](NC(=O)c2ccnn2CC)[C@H]2CC[C@H](C)CC2)c(F)c1 [Compound 373]
Ans. 10 to 100 nM

Qu. Repeat for the following molecule: CCC(=O)N[C@@H](C(=O)N1CCN(C)CC1)[C@@H](C)c1ccc(NC(=O)C(NC(=O)c2ccnn2CC)C(CC)c2ccc(F)cc2)c(F)c1 (single isomer, unassigned) [Compound 555]
Ans. < 10 nM

# ---- query molecule ----
Qu. So what IC50 did CCn1nccc1C(=O)N[C@H](C(=O)Nc1ccc([C@H](C)[C@@H](NC(=O)CC2CC2)C(=O)N2CCN(C)CC2)cc1F)C1CCCCC1 [Compound 307] get with IL-17A/A (Homo sapiens)?
Ans. 10 to 100 nM
